Please go through the items and note down their DC50.
- TARGET UNDER TEST: HiBit-KRAS^G12C (Homo sapiens, UniProt P01116, G12C)
- Sequence (P01116 1-186 isoform P01116-2 G12C limits assumed): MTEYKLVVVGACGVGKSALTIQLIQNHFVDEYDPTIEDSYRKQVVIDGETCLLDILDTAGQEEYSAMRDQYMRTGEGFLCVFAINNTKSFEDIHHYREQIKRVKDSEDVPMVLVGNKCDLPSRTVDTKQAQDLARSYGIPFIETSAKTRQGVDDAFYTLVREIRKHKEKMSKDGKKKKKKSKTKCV
- ASSAY: HiBit degradation assay in SW1573 HiBit-KRas^G12C cells
- Assay type: cell-based
- Design: expressed in transfected cells; host or cells: SW1573 (clone E6), modified pcDNA3.1 vector, TK promoter
- APPLIED CONDITIONS: SW1573 HiBit-KRas^G12C, 0.1% DMSO, 24 hours; read-out: KRas^G12C-HIBit (SW1573; 0.1% DMSO) DC50*

Find DC50 for C=CC(=O)N1CCN(c2nc(O[C@@H]3CCC[C@H]3N3CCC(COCC(=O)N[C@H](C(=O)N4C[C@H](O)C[C@H]4C(=O)N[C@@H](C)c4ccc(-c5scnc5C)cc4)C(C)(C)C)CC3)nc3c(F)c(-c4cc(O)cc5ccccc45)c(Cl)cc23)CC1 on HiBit-KRAS^G12C (Homo sapiens, UniProt P01116, G12C) and write it down.
100 to 1000 nM

Please respond with reported DC50 (system HiBit-KRAS^G12C (Homo sapiens, UniProt P01116, G12C)) for C=CC(=O)N1CCN(c2nc(O[C@H](C)CN3CCC(CCOCC(=O)N[C@H](C(=O)N4C[C@H](O)C[C@H]4C(=O)N[C@@H](C)c4ccc(-c5scnc5C)cc4)C(C)(C)C)CC3)nc3c(F)c(-c4cc(O)cc5ccccc45)c(Cl)cc23)CC1 .
100 to 1000 nM

Provide DC50, system HiBit-KRAS^G12C (Homo sapiens, UniProt P01116, G12C), entry C=CC(=O)N1CCN(c2nc(OCCN3CCC(OCCOCC(=O)N[C@H](C(=O)N4C[C@H](O)C[C@H]4C(=O)N[C@@H](C)c4ccc(-c5scnc5C)cc4)C(C)(C)C)CC3)nc3c(F)c(-c4cc(O)cc5ccccc45)c(Cl)cc23)C[C@@H]1CC#N
100 to 1000 nM

Answer briefly: DC50 recorded on HiBit-KRAS^G12C (Homo sapiens, UniProt P01116, G12C) for C=CC(=O)N1CCN(c2nc(OCCN3CCC(OCCOc4cc([C@@H](C(=O)N5C[C@H](O)C[C@H]5C(=O)N[C@@H](C)c5ccc(-c6scnc6C)cc5)C(C)C)on4)CC3)nc3c(F)c(-c4cc(O)cc5ccccc45)c(Cl)cc23)C[C@@H]1CC#N
100 to 1000 nM

Report its DC50 with HiBit-KRAS^G12C (Homo sapiens, UniProt P01116, G12C) as the test system: C=CC(=O)N1CCN(c2nc(O[C@H](C)CN3CCC(OCCOCC(=O)N[C@H](C(=O)N4C[C@H](O)C[C@H]4C(=O)N[C@@H](C)c4ccc(-c5scnc5C)cc4)C(C)(C)C)CC3)nc3c(F)c(-c4cc(O)cc5ccccc45)c(Cl)cc23)CC1 (atropisomer, axis not shown) [Compound 86]
100 to 1000 nM

Quote DC50 with test system HiBit-KRAS^G12C (Homo sapiens, UniProt P01116, G12C) for C=CC(=O)N1CCN(c2nc(OCCN3CCC(OCCOCC(=O)N[C@H](C(=O)N4C[C@H](O)C[C@H]4C(=O)N[C@@H](C)c4ccc(-c5scnc5C)cc4)C(C)(C)C)CC3)nc3c(F)c(-c4cccc5cccc(C)c45)c(Cl)cc23)C[C@@H]1CC#N
> 1000 nM

Report DC50 under test system HiBit-KRAS^G12C (Homo sapiens, UniProt P01116, G12C) for C=CC(=O)N1CCN(c2nc(OCCN3CCC(COCC(=O)N[C@H](C(=O)N4C[C@H](O)C[C@H]4C(=O)N[C@@H](C)c4ccc(-c5scnc5C)cc4)C(C)(C)C)CC3)nc3c(F)c(-c4cc(O)cc5ccccc45)c(Cl)cc23)CC1 (atropisomer, axis not shown) [Compound 10] .
> 1000 nM

// fetch DC50; item: C=CC(=O)N1CCN(c2nc(O[C@H](C)CN3CCC(CCCOC4CN(CC(=O)N[C@H](C(=O)N5C[C@H](O)C[C@H]5C(=O)N[C@@H](C)c5ccc(-c6scnc6C)cc5)C(C)(C)C)C4)CC3)nc3c(F)c(-c4cc(O)cc5ccccc45)c(Cl)cc23)CC1 ; system: HiBit-KRAS^G12C (Homo sapiens, UniProt P01116, G12C)
100 to 1000 nM

* * *

- TARGET UNDER TEST: HiBit-KRAS^G12C (Homo sapiens, UniProt P01116, G12C)
- ASSAY: HiBit degradation assay in MiaPaCa-2 HiBit-KRas^G12C cells
- Type: cell-based
- APPLIED CONDITIONS: MIA PaCa-2, read-out: KRas^G12C-HiBiT (MiaPaCa; 0.5% DMSO) DMax, MiaPaCa-2 HiBit-KRas^G12C cells; 0.5% DMSO; 24 hours; maximum degradation
Give Dmax for every item shown.

Assign Dmax to the following record: C=CC(=O)N1CCN(c2nc(O[C@H](C)CN3CCN(C4CN(CC(=O)N[C@H](C(=O)N5C[C@H](O)C[C@H]5C(=O)N[C@@H](C)c5ccc(-c6scnc6C)cc5)C(C)(C)C)C4)CC3)nc3c(F)c(-c4cc(O)cc5ccccc45)c(Cl)cc23)CC1 [Compound 40]
< 35%

Return reported Dmax. Input compound: C=CC(=O)N1CCN(c2nc(O[C@H](C)CN3CC(OC4CCN(CC(=O)N[C@H](C(=O)N5C[C@H](O)C[C@H]5C(=O)N[C@@H](C)c5ccc(-c6scnc6C)cc5)C(C)(C)C)CC4)C3)nc3c(F)c(-c4cc(O)cc5ccccc45)c(Cl)cc23)CC1 [Compound 46]
35 to 70%

Give reported Dmax value for C=CC(=O)N1CCN(c2nc(O[C@@H]3CCC[C@H]3N3CCC(COCC(=O)N[C@H](C(=O)N4C[C@H](O)C[C@H]4C(=O)N[C@@H](C)c4ccc(-c5scnc5C)cc4)C(C)(C)C)CC3)nc3c(F)c(-c4cc(O)cc5ccccc45)c(Cl)cc23)CC1 [Compound 13]
35 to 70%

Read off the recorded Dmax for C=CC(=O)N1CCN(c2nc(OCCN3CCC(CN(C)CC(=O)N[C@H](C(=O)N4C[C@H](O)C[C@H]4C(=O)N[C@@H](C)c4ccc(-c5scnc5C)cc4)C(C)(C)C)CC3)nc3c(F)c(-c4cc(O)cc5ccccc45)c(Cl)cc23)C[C@@H]1CC#N [Compound 148]
35 to 70%

Return reported Dmax. Input compound: C=CC(=O)N1CCN(c2nc(O[C@H]3CCC[C@@H]3N3CCC(COCC(=O)N[C@H](C(=O)N4C[C@H](O)C[C@H]4C(=O)N[C@@H](C)c4ccc(-c5scnc5C)cc4)C(C)(C)C)CC3)nc3c(F)c(-c4cc(O)cc5ccccc45)c(Cl)cc23)CC1 [Compound 12]
< 35%

State, in one line, measured Dmax of C=CC(=O)N1CCN(c2nc(OCCN3CCC4(CC3)CN(CC(=O)N[C@H](C(=O)N3C[C@H](O)C[C@H]3C(=O)N[C@@H](C)c3ccc(-c5scnc5C)cc3)C(C)(C)C)C4)nc3c(F)c(-c4cc(O)cc5ccccc45)c(Cl)cc23)C[C@@H]1CC#N [Compound 145]
35 to 70%

Identify measured Dmax corresponding to C=CC(=O)N1CCN(c2nc(OCCN3CCC(F)(CN(C)CC(=O)N[C@H](C(=O)N4C[C@H](O)C[C@H]4C(=O)N[C@@H](C)c4ccc(-c5scnc5C)cc4)C(C)(C)C)CC3)nc3c(F)c(-c4cc(O)cc5ccccc45)c(Cl)cc23)C[C@@H]1CC#N [Compound 120]
35 to 70%

* * *

- TARGET UNDER TEST: HiBit-KRAS^G12C (Homo sapiens, UniProt P01116, G12C)
- ASSAY: HiBit degradation assay in SW1573 HiBit-KRas^G12C cells
- Type: cell-based
- Design: expressed in transfected cells; host or cells: SW1573 (clone E6), modified pcDNA3.1 vector, TK promoter
- APPLIED CONDITIONS: SW1573, SW1573 HiBit-KRas^G12C, 0.5% DMSO, 24 hours; read-out: KRas^G12C-HiBiT (SW1573; 0.5% DMSO) Dmax**
METRIC NAME: Dmax

Determine from records and report Dmax for C=CC(=O)N1CCN(c2nc(OC[C@@H]3CCCN3CCCCOCC(=O)N[C@H](C(=O)N3C[C@H](O)C[C@H]3C(=O)N[C@@H](C)c3ccc(-c4scnc4C)cc3)C(C)(C)C)nc3c(F)c(-c4cc(O)cc5ccccc45)c(Cl)cc23)C[C@@H]1CC#N [Compound 100]
< 35%

Retrieve Dmax measured for C=C(F)C(=O)N1CCN(c2nc(OCCN3CCC(C)(COc4cc([C@H](C(=O)N5C[C@H](O)C[C@H]5C(=O)N[C@@H](C)c5ccc(-c6scnc6C)cc5)C(C)C)on4)CC3)nc3c(F)c(-c4cc(O)cc5ccccc45)c(Cl)cc23)C[C@@H]1CC#N (atropisomer, axis not shown) [Compound 123] and print it.
> 70%
